Items are presented alongside their recorded log10(EC50).
- Measured on: PRMT5-MEP50 enzyme complex (Homo sapiens, UniProt O14744)
- Construct: Full-length (FL)-PRMT5-MEP50 enzyme complex (recombinant proteins from baculovirus-transfected Sf21 cells: FL-PRMT5; MW=73837 kDa and FL-MEP50; MW=38614); made in house; host or cells: baculovirus-transfected Sf21 cells
- Sequence (O14744 whole entry): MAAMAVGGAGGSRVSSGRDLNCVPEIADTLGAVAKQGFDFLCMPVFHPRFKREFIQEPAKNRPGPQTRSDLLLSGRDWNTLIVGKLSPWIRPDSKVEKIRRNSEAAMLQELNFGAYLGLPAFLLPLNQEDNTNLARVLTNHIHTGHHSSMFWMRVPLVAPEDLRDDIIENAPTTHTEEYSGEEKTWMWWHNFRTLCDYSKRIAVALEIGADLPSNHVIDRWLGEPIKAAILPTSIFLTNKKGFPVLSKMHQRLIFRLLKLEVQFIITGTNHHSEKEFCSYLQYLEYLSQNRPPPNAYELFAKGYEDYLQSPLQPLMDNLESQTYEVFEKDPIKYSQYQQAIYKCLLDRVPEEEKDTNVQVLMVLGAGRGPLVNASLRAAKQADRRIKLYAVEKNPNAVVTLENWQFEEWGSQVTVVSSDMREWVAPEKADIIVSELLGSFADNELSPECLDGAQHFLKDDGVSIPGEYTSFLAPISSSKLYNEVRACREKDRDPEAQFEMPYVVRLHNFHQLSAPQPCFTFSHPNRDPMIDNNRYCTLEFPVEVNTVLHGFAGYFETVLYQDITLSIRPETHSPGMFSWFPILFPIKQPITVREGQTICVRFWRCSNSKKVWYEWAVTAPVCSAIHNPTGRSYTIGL
- Sequence (Q9BQA1 whole entry partner): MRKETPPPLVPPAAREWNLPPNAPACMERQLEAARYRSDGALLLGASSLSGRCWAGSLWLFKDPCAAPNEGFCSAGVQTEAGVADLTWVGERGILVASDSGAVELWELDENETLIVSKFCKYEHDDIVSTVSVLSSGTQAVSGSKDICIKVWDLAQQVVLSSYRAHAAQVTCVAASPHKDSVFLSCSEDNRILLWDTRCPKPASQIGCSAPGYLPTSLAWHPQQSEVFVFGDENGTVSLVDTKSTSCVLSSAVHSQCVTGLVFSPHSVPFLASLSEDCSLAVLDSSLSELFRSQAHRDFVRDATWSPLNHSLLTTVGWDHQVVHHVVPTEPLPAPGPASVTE
- Assay details: PRMT5-MEP50 Enzyme Methylation Assay (Version A)
- Format: biochemical
- Assay context: second of two EC50s: 7 parameters biphasic model; read-out: Enzyme Methylation Assay Version A (EC50_2)
Result type: log10(EC50) (log10 of the value in µM)

[[record]]
compound = "CC(=O)N1CCC(Nc2nccc(C(=O)N3CC[C@H](N4CCc5ccccc5C4)[C@@H](O)C3)c2F)CC1 [Example 18]"
reported = 0.83

[[record]]
compound = "CC(=O)N1CCC(Nc2cc(C(=O)N3CCC(N4CCc5ccccc5C4)C(O)C3(C)C)ccn2)CC1 (single isomer, unassigned) [Example 22]"
reported = 1.77

[[record]]
compound = "N#CC1(c2ccc3nc(C(=O)N4CC[C@H](N5CCc6ccccc6C5)[C@@H](O)C4)cn3c2)CC1 [Example 125]"
reported = 1.14

[[record]]
compound = "Cc1cc(Br)c2nc(C(=O)N3CC[C@H](N4CCc5ccccc5C4)[C@@H](O)C3)cn2c1 [Example 134]"
reported = -0.69

[[record]]
compound = "COc1nc2nc(C(=O)N3CC[C@H](N4CCc5ccccc5C4)[C@@H](O)C3)cn2cc1Br [Example 69]"
reported = -0.13

[[record]]
compound = "O=C(c1cn2cc(Br)c(O)nc2n1)N1CC[C@H](N2CCc3ccccc3C2)[C@@H](O)C1 [Example 70]"
reported = 1.94

[[record]]
compound = "CC(=O)N1CCC(Nc2cc(C(=O)N3CCC(N4CCc5ccccc5C4)C(O)C3(C)C)ccn2)CC1 (single isomer, unassigned) [Example 23]"
reported = 1.50

[[record]]
compound = "O=C(c1cc(NC2CC3CCC(C2)N3)ncc1F)N1CC[C@H](N2CCc3ccccc3C2)[C@@H](O)C1 (stereo partly drawn) [Example 121]"
reported = 0.46

[[record]]
compound = "Cc1nc2nc(C(=O)N3CC[C@H](N4CCc5ccccc5C4)[C@@H](O)C3)cn2cc1Br [Example 67]"
reported = -1.28

[[record]]
compound = "O=C(c1cn2cc(Cl)cc(Cl)c2n1)N1CC[C@H](N2CCc3ccccc3C2)[C@@H](O)C1 [Example 140]"
reported = -1.19

[[record]]
compound = "CC1(C)Oc2ccc(C(=O)N3CC[C@H](N4CCc5ccccc5C4)[C@@H](O)C3)cc2NC1=O [Example 101]"
reported = 0.46

[[record]]
compound = "CC(=O)N1CCC(Nc2cc(C(=O)N3CC[C@H](N4CCc5ccccc5C4)[C@@H](O)C3)c(F)cn2)C1 (single isomer, unassigned) [Example 114]"
reported = 0.50

[[record]]
compound = "Cc1c(Br)cnc2nc(C(=O)N3CC[C@H](N4CCc5ccccc5C4)[C@@H](O)C3)cn12 [Example 66]"
reported = -0.06

[[record]]
compound = "CCN1CCNc2cc(C(=O)N3CC[C@H](N4CCc5ccccc5C4)[C@@H](O)C3)ccc2C1=O [Example 64]"
reported = 0.22


Origin of values: patent US12595248B2
